Method notes: Mutagenicity in Salmonella typhimurium TA102 at 50 ug/plate preincubated for 20 mins followed by addition of top agar and measured after 48 hrs by Ames test
Assay type: toxicity
Condition summary: salmonella enterica subsp. enterica serovar typhimurium
Readout label: Activity_index
One number for each entry.

IN: Looking for the measured Activity_index of Cl.Cl.O=c1c2cc(Cl)ccc2oc2ccc(CN3CCN(CCOCCO)CC3)cc12 , can you help?
OUT: 0.78

IN: I have this molecule here, Cl.Cl.O=c1c2ccccc2oc2c(CN3CCN(CCO)CC3)cccc12 , and I need its recorded Activity_index.
OUT: 0.54

IN: What Activity_index value was documented for this molecule, CCOC(=O)N1CCN(Cc2cccc3c(=O)c4ccc(OC)cc4oc23)CC1.Cl.Cl ?
OUT: 0.77

New cases:
IN: Reported Activity_index for CN1CCN(Cc2ccc3oc4ccc(Cl)cc4c(=O)c3c2)CC1 : what is it?
OUT: 0.86
